- assaySystem: hERG (Homo sapiens)
- Sequence (Q12809 whole entry): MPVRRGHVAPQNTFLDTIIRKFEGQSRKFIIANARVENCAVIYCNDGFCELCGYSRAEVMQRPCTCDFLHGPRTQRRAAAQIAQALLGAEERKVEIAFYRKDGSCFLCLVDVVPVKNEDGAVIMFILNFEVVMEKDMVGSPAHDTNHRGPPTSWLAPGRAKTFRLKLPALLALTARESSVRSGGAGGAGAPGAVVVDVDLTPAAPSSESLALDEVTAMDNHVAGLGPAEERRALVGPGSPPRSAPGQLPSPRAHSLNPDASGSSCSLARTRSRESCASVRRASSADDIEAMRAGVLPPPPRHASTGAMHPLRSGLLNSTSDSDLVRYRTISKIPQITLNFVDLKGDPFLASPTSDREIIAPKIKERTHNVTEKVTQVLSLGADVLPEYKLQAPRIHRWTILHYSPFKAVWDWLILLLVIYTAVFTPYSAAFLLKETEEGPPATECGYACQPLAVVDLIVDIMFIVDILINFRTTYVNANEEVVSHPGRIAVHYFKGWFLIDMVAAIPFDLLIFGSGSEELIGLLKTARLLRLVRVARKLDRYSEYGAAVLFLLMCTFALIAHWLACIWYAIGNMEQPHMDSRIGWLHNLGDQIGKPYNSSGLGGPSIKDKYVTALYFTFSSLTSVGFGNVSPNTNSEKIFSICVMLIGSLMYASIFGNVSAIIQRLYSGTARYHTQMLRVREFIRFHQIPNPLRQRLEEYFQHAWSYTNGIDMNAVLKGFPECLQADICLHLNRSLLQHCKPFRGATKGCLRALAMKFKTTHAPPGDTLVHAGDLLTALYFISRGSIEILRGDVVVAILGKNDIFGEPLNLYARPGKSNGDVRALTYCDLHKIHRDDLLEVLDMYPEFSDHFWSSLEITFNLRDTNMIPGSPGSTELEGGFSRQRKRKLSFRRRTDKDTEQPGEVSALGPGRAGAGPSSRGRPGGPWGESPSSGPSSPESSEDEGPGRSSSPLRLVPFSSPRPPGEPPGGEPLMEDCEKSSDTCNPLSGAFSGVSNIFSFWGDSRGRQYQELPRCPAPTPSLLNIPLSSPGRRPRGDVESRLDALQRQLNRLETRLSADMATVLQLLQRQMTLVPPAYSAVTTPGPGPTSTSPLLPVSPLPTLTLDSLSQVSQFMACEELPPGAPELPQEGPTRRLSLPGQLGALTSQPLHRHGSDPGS
- assayExplanation: in vitro
- experimentalContext: human
- Procedure: This example describes a method for assaying ion channel activity in cells. Peptides were screened in duplicate at final concentrations of 20 μM and 200 nM, as determined by amino acid analysis, and diluted into HEPES buffered physiological saline (HBPS). HEK293 or CHO cells from the American Type Culture Collection (ATCC) were transfected with the appropriate ion channel before use. […]
Bridges are numbered along the chain shown (N, C = ends). Where no end group is shown, it is not given here.
measuredMetric: activity at 20 µM

stdin: Specify activity at 20 µM for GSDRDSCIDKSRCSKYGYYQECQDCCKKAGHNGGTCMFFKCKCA (disulfide 7-25, 13-36, 22-41, 26-43) [SEQ ID NO: 14] , system hERG (Homo sapiens).
stdout: < 50%

* * *

// reported Activity of TRPA1 with peptide (percentage of the reference compound) for each item listed
- assaySystem: TRPA1 (Homo sapiens, UniProt O75762)
- Construct: host or cells: HEK293 or CHO
- Sequence (O75762 whole entry): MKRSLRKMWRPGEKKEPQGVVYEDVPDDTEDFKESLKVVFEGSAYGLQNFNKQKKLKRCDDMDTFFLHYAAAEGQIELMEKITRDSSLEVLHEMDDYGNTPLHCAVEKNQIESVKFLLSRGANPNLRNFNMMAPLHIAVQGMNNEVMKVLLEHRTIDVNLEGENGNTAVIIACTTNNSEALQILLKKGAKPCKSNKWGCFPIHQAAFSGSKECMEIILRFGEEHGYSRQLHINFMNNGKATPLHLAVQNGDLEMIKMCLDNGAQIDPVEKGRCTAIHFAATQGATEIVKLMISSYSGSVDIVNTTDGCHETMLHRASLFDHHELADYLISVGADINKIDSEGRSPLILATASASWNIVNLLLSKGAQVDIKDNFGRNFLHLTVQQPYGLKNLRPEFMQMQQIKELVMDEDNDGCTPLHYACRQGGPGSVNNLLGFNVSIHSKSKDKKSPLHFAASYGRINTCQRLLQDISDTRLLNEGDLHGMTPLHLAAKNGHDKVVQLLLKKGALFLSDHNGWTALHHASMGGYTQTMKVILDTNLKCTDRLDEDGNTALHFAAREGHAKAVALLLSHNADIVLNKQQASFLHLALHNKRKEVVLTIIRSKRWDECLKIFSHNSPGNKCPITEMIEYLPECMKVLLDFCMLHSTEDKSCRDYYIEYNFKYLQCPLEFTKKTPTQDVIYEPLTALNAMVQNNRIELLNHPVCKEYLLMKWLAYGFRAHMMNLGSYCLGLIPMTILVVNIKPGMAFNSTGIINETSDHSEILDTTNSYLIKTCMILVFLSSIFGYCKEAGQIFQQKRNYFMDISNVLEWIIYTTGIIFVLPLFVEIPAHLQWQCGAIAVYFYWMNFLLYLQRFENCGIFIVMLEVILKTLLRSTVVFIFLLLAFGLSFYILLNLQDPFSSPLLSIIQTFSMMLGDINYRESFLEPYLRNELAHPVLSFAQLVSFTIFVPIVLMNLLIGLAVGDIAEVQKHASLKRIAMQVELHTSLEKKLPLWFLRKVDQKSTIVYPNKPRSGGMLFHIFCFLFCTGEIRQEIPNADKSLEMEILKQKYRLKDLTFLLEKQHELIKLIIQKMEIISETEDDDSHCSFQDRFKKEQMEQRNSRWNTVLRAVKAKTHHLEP
- assayExplanation: Ion channel panel (IonWorks Barracuda): TRPA1
- Format: cell-based
- experimentalContext: peptide at 20 μM; 100% = no change, <100% = inhibition
Provide only the numeric value, understood in %.

Known results for substances:
12 (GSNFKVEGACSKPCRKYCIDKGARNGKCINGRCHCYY) [compound 12] :: 80
32 (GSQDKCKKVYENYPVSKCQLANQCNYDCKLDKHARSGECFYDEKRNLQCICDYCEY) [compound 32] :: 108
25 (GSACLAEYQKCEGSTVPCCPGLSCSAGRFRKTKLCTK) [compound 25] :: 129
24 (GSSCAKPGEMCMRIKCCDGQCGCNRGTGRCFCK) [compound 24] :: 107

stdin: Answer with the recorded Activity of TRPA1 with peptide (percentage of the reference compound) of 29 (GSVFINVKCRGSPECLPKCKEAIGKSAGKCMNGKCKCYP) [compound 29] only.
stdout: 109

* * *

- assaySystem: Nav1.5 (Homo sapiens, UniProt Q14524)
- Sequence (Q14524 whole entry): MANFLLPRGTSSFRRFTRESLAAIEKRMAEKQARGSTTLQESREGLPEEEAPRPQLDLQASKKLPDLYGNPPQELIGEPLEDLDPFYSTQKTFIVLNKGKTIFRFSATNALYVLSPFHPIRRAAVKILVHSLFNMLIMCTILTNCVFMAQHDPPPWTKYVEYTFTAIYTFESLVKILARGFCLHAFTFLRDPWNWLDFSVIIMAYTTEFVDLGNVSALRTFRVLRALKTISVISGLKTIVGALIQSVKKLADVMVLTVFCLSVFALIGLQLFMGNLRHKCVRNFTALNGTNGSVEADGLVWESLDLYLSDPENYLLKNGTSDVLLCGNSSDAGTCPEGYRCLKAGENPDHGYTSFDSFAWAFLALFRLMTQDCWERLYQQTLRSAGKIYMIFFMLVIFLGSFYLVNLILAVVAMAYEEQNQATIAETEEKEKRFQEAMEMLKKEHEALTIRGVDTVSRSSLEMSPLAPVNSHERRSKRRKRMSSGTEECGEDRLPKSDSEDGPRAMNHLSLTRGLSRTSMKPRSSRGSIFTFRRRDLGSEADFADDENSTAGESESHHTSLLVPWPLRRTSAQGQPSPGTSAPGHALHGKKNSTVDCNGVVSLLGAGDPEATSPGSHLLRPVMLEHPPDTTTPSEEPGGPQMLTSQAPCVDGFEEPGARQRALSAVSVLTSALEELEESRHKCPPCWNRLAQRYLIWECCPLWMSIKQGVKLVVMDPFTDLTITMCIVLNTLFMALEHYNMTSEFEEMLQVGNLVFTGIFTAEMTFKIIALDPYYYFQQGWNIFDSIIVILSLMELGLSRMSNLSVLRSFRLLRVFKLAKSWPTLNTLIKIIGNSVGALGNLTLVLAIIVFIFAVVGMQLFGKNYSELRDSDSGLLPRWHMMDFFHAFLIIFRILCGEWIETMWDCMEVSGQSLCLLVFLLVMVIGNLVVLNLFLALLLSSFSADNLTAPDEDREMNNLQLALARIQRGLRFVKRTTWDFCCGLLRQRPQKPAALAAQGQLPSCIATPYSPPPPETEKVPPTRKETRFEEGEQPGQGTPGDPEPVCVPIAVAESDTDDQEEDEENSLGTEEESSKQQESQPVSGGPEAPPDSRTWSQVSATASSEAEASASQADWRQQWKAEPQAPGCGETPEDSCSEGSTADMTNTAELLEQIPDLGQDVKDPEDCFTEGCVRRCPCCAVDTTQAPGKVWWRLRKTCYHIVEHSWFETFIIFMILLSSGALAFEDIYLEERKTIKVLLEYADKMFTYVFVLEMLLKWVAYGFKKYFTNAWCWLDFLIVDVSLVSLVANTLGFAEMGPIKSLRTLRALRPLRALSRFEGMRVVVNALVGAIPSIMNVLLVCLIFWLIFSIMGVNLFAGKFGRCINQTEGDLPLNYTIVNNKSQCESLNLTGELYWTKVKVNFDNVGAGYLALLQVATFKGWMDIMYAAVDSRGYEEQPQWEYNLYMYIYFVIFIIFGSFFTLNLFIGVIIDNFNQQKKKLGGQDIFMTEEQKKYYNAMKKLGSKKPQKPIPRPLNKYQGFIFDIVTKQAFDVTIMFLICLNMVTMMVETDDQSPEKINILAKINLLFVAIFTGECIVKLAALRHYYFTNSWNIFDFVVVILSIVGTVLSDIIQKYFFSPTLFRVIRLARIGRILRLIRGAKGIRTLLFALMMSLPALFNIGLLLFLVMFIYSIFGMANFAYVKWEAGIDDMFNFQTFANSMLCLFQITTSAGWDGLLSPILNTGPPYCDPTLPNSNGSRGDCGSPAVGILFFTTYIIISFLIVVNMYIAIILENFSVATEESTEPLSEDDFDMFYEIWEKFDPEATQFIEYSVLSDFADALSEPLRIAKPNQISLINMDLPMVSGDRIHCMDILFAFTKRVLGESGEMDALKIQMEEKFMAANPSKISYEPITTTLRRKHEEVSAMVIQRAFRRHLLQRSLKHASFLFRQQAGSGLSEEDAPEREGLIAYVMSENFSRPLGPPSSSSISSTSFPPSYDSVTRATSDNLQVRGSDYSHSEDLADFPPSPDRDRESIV
- assayExplanation: in vitro
- experimentalContext: peptide at 20 μM; second of two Nav1.5 columns (probably TP2); 100% = no change
// reported Activity of Nav1.5 with peptide (percentage of the reference compound) for each item listed
Provide only the numeric value, understood in %.

Known results for substances:
19 (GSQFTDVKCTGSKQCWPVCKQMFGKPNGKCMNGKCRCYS) [compound 19] :: 117
24 (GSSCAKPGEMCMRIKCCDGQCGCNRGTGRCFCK) [compound 24] :: 104
38 (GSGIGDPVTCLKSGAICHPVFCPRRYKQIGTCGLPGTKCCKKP) [compound 38] :: 112
5 (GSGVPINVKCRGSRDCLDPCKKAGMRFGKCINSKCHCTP) [compound 5] :: 105
22 (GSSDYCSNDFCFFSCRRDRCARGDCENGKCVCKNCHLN) [compound 22] :: 116

stdin: Answer with the recorded Activity of Nav1.5 with peptide (percentage of the reference compound) of 39 (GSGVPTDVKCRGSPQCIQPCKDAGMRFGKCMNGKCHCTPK) [compound 39] only.
stdout: 114

stdin: Answer with the recorded Activity of Nav1.5 with peptide (percentage of the reference compound) of 21 (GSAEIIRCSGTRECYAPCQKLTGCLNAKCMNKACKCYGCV) [compound 21] only.
stdout: 91

Cited source: patent US20200262877A1
